The reported measurements were obtained from patent US11214803B2.

Tested on: Yap1 mRNA
Assay: Antisense inhibition of human Yap1 in SNU-449 cells by modified oligonucleotides, single dose (Example 5, RTS36584)
Type: cell-based
Settings: Yap1 mRNA, percent of untreated control; modified oligonucleotides targeting SEQ ID NO: 1 and 2; Table 47
Description: Modified oligonucleotides with additional chemistry modifications were designed to target a Yap1 nucleic acid and were tested for their effect on Yap1 mRNA level in SNU-449 cells. […] After a treatment period of approximately 48 hours, RNA was isolated from the cells and Yap1 mRNA levels were measured by quantitative real-time RTPCR. […] Yap1 mRNA levels were normalized to total RNA content, as measured by RIBOGREEN®. […]
Strand notation (5' to 3'): a small letter for the sugar, then the base; units joined by * are phosphorothioate-linked, units joined directly phosphodiester-linked; [ ] holds rarer units or linkages, { } end groups; capitals alone tell only the bases. e = 2'-O-(2-methoxyethyl) (MOE); k = constrained ethyl (cEt); [5mC] = 5-methylcytosine; d = 2'-deoxy (DNA)
true (1) means recorded YAP1 (% UT) is 30 % UT or above; false (0) means it is below 30 % UT.

substance	assigned_category
1197187 (antisense kG*kG*kA*dA*dG*dA*dT*d[5mC]*dT*dG*dA*dA*dA*k[5mC]*kT*k[5mC]) [Compound 1197187]	false (0)
1198879 (k[5mC]*kT*dT*dT*dA*dA*dA*dG*dT*dG*dT*kA*eT*kG*eT*k[5mC]; antisense) [Compound 1198879]	false (0)
1197197 (antisense kT*k[5mC]*kA*dG*dA*dT*dT*dT*dA*dG*dG*dA*dT*kG*k[5mC]*kA) [Compound 1197197]	false (0)
1076187 (kG*kA*kT*dT*dT*dA*dG*dG*dA*dT*dG*d[5mC]*dA*kT*kG*kG; antisense) [Compound 1076187]	false (0)
1198880 (kA*kA*d[5mC]*dT*dT*dT*dA*dA*dA*dG*dT*kG*eT*kA*eT*kG; antisense) [Compound 1198880]	true (1)
1197207 (antisense kA*kA*kT*dA*dT*dT*dG*d[5mC]*dA*dA*dT*d[5mC]*dT*kG*kT*k[5mC]) [Compound 1197207]	true (1)
